tested on: NCI/ADR-RES ovarian; test: NCI tumour cell line growth inhibition, 48 h
observed.property: TGI

[
  {
    "molecule": "CC(N)(Cc1c[nH]c2cccc(F)c12)C(=O)O (configuration not stated)",
    "test.result": "> 1000 µM"
  },
  {
    "molecule": "C=C/C=C/[C@@H](O)CC(=C)C[C@H]1OC2[C@H](C)[C@@H](OC(=O)C[C@H]3C[C@H](OC(C)=O)C[C@@]4(C[C@@](C)(O)C[C@H](CC(=C)[C@@H](C)[C@H](OC(C)=O)[C@H](C)C(=O)C[C@@H]5C[C@H](OC)CC6(C[C@@H](O)C[C@H](/C=C\\CCC[C@H]7O[C@](O)(C=C[C@H]7C)[C@H]2O)O6)O5)O4)O3)[C@@H]1O",
    "test.result": "0.164 µM"
  },
  {
    "molecule": "O=c1oc2ccccc2cc1-c1cn2c(n1)sc1ccccc12",
    "test.result": "> 100 µM"
  },
  {
    "molecule": "O=C(/C=C(\\S/C=C(/c1ccccc1)N1CCn2c(C(=O)c3ccccc3)c(C(=O)c3ccccc3)c(C(=O)c3ccccc3)c21)C(=O)c1ccccc1)c1ccccc1",
    "test.result": "> 10 µM"
  },
  {
    "molecule": "O=C1CC[C@@]2(O)[C@H]3Cc4ccc(-c5ccccc5)c5c4[C@@]2(CCN3CC2CC2)[C@H]1O5",
    "test.result": "33.7 µM"
  },
  {
    "molecule": "O=C(N/N=C\\c1ccc(N(CCCl)CCCl)cc1[N+](=O)[O-])c1cccnc1",
    "test.result": "> 100 µM"
  },
  {
    "molecule": "Nc1[nH]nc2nc3ccccc3nc12",
    "test.result": "> 100 µM"
  }
]

* * *

system: IGROV1 ovarian; assay: NCI tumour cell line growth inhibition, 48 h
Readings of TGI for the listed molecules

[
  {
    "molecule": "O=C1C(Cl)=C(N(C(=O)c2ccccc2)C(=O)c2ccccc2)C(=O)c2ccccc21",
    "TGI": "> 100 µM"
  },
  {
    "molecule": "COc1ccc(C/C(=C(\\C)c2ccc(OCCN3CCCC3)cc2)c2ccc(OCCN3CCCC3)cc2)cc1",
    "TGI": "3.97 µM"
  },
  {
    "molecule": "CC(C)=CCC/C(C)=C/COc1c2ccoc2cc2oc(=O)ccc12",
    "TGI": "> 100 µM"
  },
  {
    "molecule": "CC1=C(SCCC(=O)OC(C[Se]C2=C(C)C(=O)c3ccccc3C2=O)C(=O)NCCCCCC(=O)OCc2ccccc2)C(=O)c2ccccc2C1=O (centres undefined)",
    "TGI": "14.5 µM"
  },
  {
    "molecule": "Cc1cccc(C)c1NC(=O)C1=NC(=S)NC(c2ccccc2)C1c1nc2ccccc2s1 (centres undefined)",
    "TGI": "> 100 µM"
  },
  {
    "molecule": "c1ccc2c3c([nH]c2c1)[C@H]1C2CCCCN2CN1CC3 (some centres undefined)",
    "TGI": "> 100 µM"
  },
  {
    "molecule": "Cc1c(N=Nc2ccccc2)c(C)n(C2OC(CO)C(O)C(O)C2O)c(=S)c1C#N (centres undefined)",
    "TGI": "> 100 µM"
  },
  {
    "molecule": "C=C1CC(Cn2ccc(=O)[nH]c2=O)(c2ccc(Cl)cc2)OC1=O (centres undefined)",
    "TGI": "9.98 µM"
  },
  {
    "molecule": "C/C=C1\\CN(C(=O)OC(C)(C)C)C1C(=O)OC(C)(C)C (centres undefined)",
    "TGI": "> 100 µM"
  }
]
